Entry source: paper PMC11953117

# Assay details: Capivasertib exposure metrics at steady state projected with PopPK model, patients with solid tumors
# Assay type: in vivo
# Cond: human, plasma, oral, 160 mg, Study 1, Continuous BID, 160 mg, PWD 2240 mg, N=5, median (range), read-out: AUCPWD
Measured quantity: AUC
# output: numeric value plus its unit

[ask] Input NC1(C(=O)N[C@@H](CCO)c2ccc(Cl)cc2)CCN(c2ncnc3[nH]ccc23)CC1 , output reported AUC.
[reply] 41800 ng·h/mL

----------
# Assay details: Capivasertib exposure metrics at steady state projected with PopPK model, patients with solid tumors
# Format: in vivo
# Cond: human, plasma, oral, 480 mg, OAK, [4/3] BID, 480 mg, PWD 3840 mg, N=30, median (range), read-out: Cmin
Measured quantity: concentration at 12 h (ng/mL)
Report as a plain number; the unit ng/mL is understood.

[ask] Input NC1(C(=O)N[C@@H](CCO)c2ccc(Cl)cc2)CCN(c2ncnc3[nH]ccc23)CC1 , output reported concentration at 12 h.
[reply] 330

----------
# Assay details: Capivasertib exposure metrics at steady state projected with PopPK model, patients with solid tumors
# Assay type: in vivo
# Cond: human, plasma, oral, 480 mg, Study 1, [4/3] BID, PWD 3840 mg, N=127, median (range)
Measured quantity: AUC at 1 week (ng·h/mL)
Report as a plain number; the unit ng·h/mL is understood.

[ask] Input NC1(C(=O)N[C@@H](CCO)c2ccc(Cl)cc2)CCN(c2ncnc3[nH]ccc23)CC1 , output reported AUC at 1 week.
[reply] 77400

----------
# Assay details: Capivasertib exposure metrics at steady state projected with PopPK model, patients with solid tumors
# Assay type: in vivo
# Cond: human, plasma, oral, 480 mg, Study 1, [4/3] BID, PWD 3840 mg, N=127, median (range)
Measured quantity: Cmax (ng/mL)
Report as a plain number; the unit ng/mL is understood.

[ask] Input NC1(C(=O)N[C@@H](CCO)c2ccc(Cl)cc2)CCN(c2ncnc3[nH]ccc23)CC1 [capivasertib] , output reported Cmax.
[reply] 1590

----------
# Assay details: Capivasertib exposure metrics at steady state projected with PopPK model, patients with solid tumors
# Format: in vivo
# Cond: human, plasma, oral, 320 mg, Study 4 (Japanese patients), Continuous BID, PWD 4480 mg, N=6, median (range)
Measured quantity: AUC at 1 week (ng·h/mL)
Report as a plain number; the unit ng·h/mL is understood.

[ask] Input NC1(C(=O)N[C@@H](CCO)c2ccc(Cl)cc2)CCN(c2ncnc3[nH]ccc23)CC1 [capivasertib] , output reported AUC at 1 week.
[reply] 91800

----------
# Assay details: Capivasertib exposure metrics at steady state projected with PopPK model, patients with solid tumors
# Assay type: in vivo
# Cond: human, plasma, oral, 480 mg, Study 1, [4/3] BID, 480 mg, PWD 3840 mg, N=127, median (range), read-out: Cmin
Measured quantity: concentration at 12 h
# output: numeric value plus its unit

[ask] Input NC1(C(=O)N[C@@H](CCO)c2ccc(Cl)cc2)CCN(c2ncnc3[nH]ccc23)CC1 , output reported concentration at 12 h.
[reply] 330 ng/mL

----------
# Assay details: Capivasertib exposure metrics at steady state projected with PopPK model, patients with solid tumors
# Format: in vivo
# Cond: human, plasma, oral, 800 mg, Study 1, [2/5] BID, PWD 3200 mg, N=14, median (range)
Measured quantity: AUC at 1 week (µg·h/mL)
Report as a plain number; the unit µg·h/mL is understood.

[ask] Input NC1(C(=O)N[C@@H](CCO)c2ccc(Cl)cc2)CCN(c2ncnc3[nH]ccc23)CC1 , output reported AUC at 1 week.
[reply] 106
